# experimentalSystem: human orexin-1 receptor (Homo sapiens (Human))
# Sequence (O43613 whole entry): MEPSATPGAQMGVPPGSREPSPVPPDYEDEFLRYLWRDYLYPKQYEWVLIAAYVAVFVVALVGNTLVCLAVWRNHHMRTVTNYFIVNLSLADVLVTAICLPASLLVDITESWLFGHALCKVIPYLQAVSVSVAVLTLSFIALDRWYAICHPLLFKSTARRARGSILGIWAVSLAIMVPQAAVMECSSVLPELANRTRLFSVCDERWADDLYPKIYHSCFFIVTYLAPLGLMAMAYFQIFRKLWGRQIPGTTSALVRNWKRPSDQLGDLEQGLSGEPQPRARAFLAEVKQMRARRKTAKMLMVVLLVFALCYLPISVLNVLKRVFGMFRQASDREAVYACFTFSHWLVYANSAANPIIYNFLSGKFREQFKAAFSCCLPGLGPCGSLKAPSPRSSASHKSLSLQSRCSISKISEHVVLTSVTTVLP
# testDescription: In vitro assay: intracellular calcium measurements (FLIPR), antagonistic activity
# Type: cell-based
# testConditions: CHO cells expressing human orexin-1 receptor, orexin-A agonist, geometric mean, read-out: IC50 Ox1
recordedMetric: IC50 (nM)

Consider the worked cases shown below.
| cpdSmiles | IC50 (nM) |
| --- | --- |
| Cc1c(Cl)ccc2[nH]c([C@@H]3[C@@H](C)CCN3C(=O)c3cc(C(F)(F)F)ccc3-c3ccccc3)nc12 | 11 |
| COc1ccc(-n2nccn2)c(C(=O)N2C[C@H](OC)C[C@H]2c2nc3ccc(Cl)c(C)c3n2C)c1 | 16 |
| C=C1C[C@@H](c2nc3cc(SC)ccc3[nH]2)N(C(=O)c2cc(C)ccc2-n2nccn2)C1 | 83 |
| CSc1cccc2nc([C@@H]3CCCN3C(=O)c3cncnc3-c3cccc(C)c3)[nH]c12 | 102 |
| Cc1nc(C(=O)N2CCC[C@H]2c2nc3c(C)cc(Br)cc3[nH]2)c(-c2ccccc2)s1 | 33 |

a: Cc1ccc(-n2nccn2)c(C(=O)N2CC[C@H](C)[C@H]2c2nc3cc(C(F)(F)F)ccc3[nH]2)c1
b: Cc1nc(C(=O)N2CCC[C@@]2(C)c2nc3c(C)c(C)c(Br)cc3[nH]2)c(-c2cccc(Cl)c2Cl)s1
Problem: Lower IC50: a or b ? Reply briefly: the label of your chosen item.
Solution: b
(b: 8 nM, a: 30 nM)

====

# experimentalSystem: human orexin-1 receptor (Homo sapiens (Human))
# testDescription: In vitro assay: intracellular calcium measurements (FLIPR), antagonistic activity
# testConditions: CHO cells expressing human orexin-1 receptor, orexin-A agonist, geometric mean, read-out: IC50 Ox1
recordedMetric: IC50 (µM)

As a guide, the following entries are already answered.
| cpdSmiles | endpointResult |
| --- | --- |
| Cc1ccc(-c2ccccc2C)c(C(=O)N2CCC[C@@]2(C)c2nc3cc(C(F)(F)F)ccc3[nH]2)c1 | 0.12 |
| COc1cc2nc([C@]3(C)CCCN3C(=O)c3cc(C)ccc3-n3nccn3)[nH]c2cc1OC | 0.022 |

a: COc1ccc2nc([C@@H]3CCCN3C(=O)c3nc(C)sc3-c3ccc(Br)cc3)[nH]c2c1
b: CSc1cccc2nc([C@@H]3CCCN3C(=O)c3cc(C)ccc3-n3nccn3)[nH]c12
Problem: Record comparison, field IC50: mark the lower of a and b . Label of pick, please.
Solution: b
(b: 0.056 µM, a: 0.935 µM)

====

# experimentalSystem: human orexin-2 receptor (Homo sapiens (Human))
# testDescription: In vitro assay: intracellular calcium measurements (FLIPR), antagonistic activity
# testConditions: CHO cells expressing human orexin-2 receptor, orexin-A agonist, geometric mean, read-out: IC50 Ox2
recordedMetric: IC50 (nM)

| compound | IC50, nM |
| --- | --- |
| CO[C@@H]1C[C@@H](c2nc3c(C)c(Cl)ccc3[nH]2)N(C(=O)c2nc(C)sc2-c2cccc(Cl)c2)C1 [Ex. 3.9] | 2 |
| Cc1cccc(-c2ccc(C)cc2C(=O)N2CCC[C@@]2(C)c2nc3cc(C)c(C)cc3n2CCF)c1 [Ex. 7.28] | 19 |
| Cc1ccc(-n2nccn2)c(C(=O)N2CCC[C@@]2(C)c2nc3cc(SC(F)(F)F)ccc3[nH]2)c1 [Ex. 5.30] | 164 |

P: COc1ccc2nc([C@@H]3CCCN3C(=O)c3cnc(C)nc3-c3ccc(Br)c(Cl)c3)[nH]c2c1 [Ex. 1.33]
Q: Cc1cccc(-c2sc(C)nc2C(=O)N2CCC[C@@]2(C)c2nc3ccc(F)c(F)c3[nH]2)c1 [Ex. 5.210]
Problem: Could you please tell me which of these two has the higher IC50: P or Q ? Your answer should be the label attached to the chosen record.
Solution: P

A: CO[C@@H]1C[C@@H](c2nc3ccc(Cl)c(C)c3[nH]2)N(C(=O)c2c(-n3nccn3)ccc(C)c2F)C1 [Ex. 3.13]
B: COc1cc2nc([C@]3(C)CCCN3C(=O)c3cc(C)ccc3-n3nccn3)n(CCF)c2cc1OC [Ex. 7.48]
Problem: Which gives the smaller IC50 number: A or B ? Selection: enter the item's label.
Solution: A
(A: 7 nM, B: 40 nM)

P: Cc1ccc(-n2nccn2)c(C(=O)N2CCC[C@@]2(C)c2nc3c(C)cccc3[nH]2)c1 [Ex. 5.6]
Q: COc1ccc(-n2nccn2)c(C(=O)N2C[C@H](OC)C[C@H]2c2nc3ccc(Cl)c(C)c3[nH]2)c1 [Ex. 3.12]
R: C=C1C[C@@H](c2nc3cccc(C)c3[nH]2)N(C(=O)c2nc(C)sc2-c2cccc(OC)c2)C1 [Ex. 6.114]
S: COc1cc2nc([C@@H]3[C@@H](C)CCN3C(=O)c3ncsc3-c3cccc(Cl)c3)[nH]c2cc1OC [Ex. 4.55]
Problem: Number of compounds to sort: 4. Sort criterion: IC50, ascending. Provide the labels, sequenced as the question asks.
Solution: R, Q, P, S

====

# experimentalSystem: UniProt O43614
# testDescription: In vitro assay: intracellular calcium measurements (FLIPR), antagonistic activity
# testConditions: CHO cells expressing human orexin-2 receptor, orexin-A agonist, geometric mean, read-out: IC50 Ox2
recordedMetric: IC50 (nM)

| compound | endpointResult |
| --- | --- |
| COc1ccc2nc([C@@H]3CCCN3C(=O)c3cnc(C)nc3-c3ccc(Cl)c(Cl)c3)[nH]c2c1 | 110 |
| CCn1c([C@]2(C)CCCN2C(=O)c2cc(C)ccc2-c2ccccc2F)nc2cc(C)c(C)cc21 | 60 |

I: Cc1nc(C(=O)N2CC[C@H](C)[C@H]2c2nc3cc(Cl)c(C)cc3[nH]2)c(-c2cc(F)cc(F)c2)s1
II: CSc1cccc2nc([C@@H]3CCCN3C(=O)c3cncnc3-c3ccc(Br)c(Cl)c3)[nH]c12
Problem: Choose between I and II : whose measured IC50 value is numerically larger? Which one? Tell me its label.
Solution: I

====

# experimentalSystem: human orexin-2 receptor (Homo sapiens (Human), UniProt O43614)
# Sequence (O43614 whole entry): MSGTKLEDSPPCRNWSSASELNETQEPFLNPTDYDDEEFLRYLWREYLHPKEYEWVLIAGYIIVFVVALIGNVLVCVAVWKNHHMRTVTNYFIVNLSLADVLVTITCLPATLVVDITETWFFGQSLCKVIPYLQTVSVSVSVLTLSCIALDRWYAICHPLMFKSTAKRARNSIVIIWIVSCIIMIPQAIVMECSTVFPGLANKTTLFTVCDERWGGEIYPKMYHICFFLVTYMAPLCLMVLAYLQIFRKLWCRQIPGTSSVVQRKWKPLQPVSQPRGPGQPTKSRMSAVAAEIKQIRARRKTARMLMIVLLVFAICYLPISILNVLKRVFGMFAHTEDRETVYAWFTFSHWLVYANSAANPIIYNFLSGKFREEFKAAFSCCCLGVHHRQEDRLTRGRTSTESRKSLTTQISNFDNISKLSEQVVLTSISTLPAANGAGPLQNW
# testDescription: In vitro assay: intracellular calcium measurements (FLIPR), antagonistic activity
# testConditions: CHO cells expressing human orexin-2 receptor, orexin-A agonist, geometric mean, read-out: IC50 Ox2
pIC50: −log10 of the molar value.
recordedMetric: pIC50

For orientation, consider the following solved cases.
| compound | endpointResult |
| --- | --- |
| CSc1cccc2nc([C@@H]3CCCN3C(=O)c3cnc(C)nc3-c3ccccc3)[nH]c12 | 7.11 |
| CO[C@H]1CN(C(=O)c2cc(OC(F)(F)F)ccc2-n2nccn2)C(C)(c2nc3c(C)c(Cl)ccc3[nH]2)C1 (stereo partly drawn) | 7.36 |
| CSc1cccc2nc([C@@H]3CCCN3C(=O)c3cncnc3-c3cccc(C)c3)[nH]c12 | 6.96 |
| Cc1ccc(-c2ccccc2)c(C(=O)N2CCC[C@@]2(C)c2nc3c(C)c(C)c(Br)cc3[nH]2)c1 | 8.05 |

a: C=C1C[C@@H](c2nc3ccc(OC)cc3[nH]2)N(C(=O)c2cc(Cl)ccc2-n2nccn2)C1
b: Cc1ccc(-c2ccccc2F)c(C(=O)N2CCC[C@@]2(C)c2nc3cc(C(F)(F)F)c(Cl)cc3[nH]2)c1
Problem: Please state the entry with greater pIC50 among a and b . Respond with the label that goes with your answer.
Solution: a
(a: 8.40, b: 7.40)

I: Cc1cc(C(=O)N2CCC[C@@]2(C)c2nc3c(C)cccc3[nH]2)c(-n2nccn2)cc1C
II: Cc1ccc(-n2nccn2)c(C(=O)N2CC[C@H](C)[C@H]2c2nc3cc(C(F)(F)F)ccc3[nH]2)c1
Problem: Look at I and II . Which one has the lower recorded pIC50 number? Lab log: write the label of the selected item as the result.
Solution: II

P: Cc1nc(C(=O)N2CCCC2c2nc3c(C)c(Cl)ccc3[nH]2)c(-c2cccc(Cl)c2)s1 (stereo not drawn)
Q: Cc1nc(C(=O)N2CCCC2c2nc3cc(OC(F)(F)F)ccc3[nH]2)c(-c2ccccc2)s1 (stereo not drawn)
R: C=C1CN(C(=O)c2nc(N(C)C)sc2-c2cccc(Cl)c2)C(C)(c2nc3cc(OC)ccc3[nH]2)C1 (stereo not drawn)
S: Cc1nc(C(=O)N2CC[C@H](C)[C@H]2c2nc3ccccc3[nH]2)c(-c2cccc(Cl)c2)s1
Problem: Form: Sort by [pIC50] Order [ ascending ] Please respond with the labels ordered as the question requires.
Solution: S, Q, R, P

====

# experimentalSystem: human orexin-2 receptor (Homo sapiens (Human))
# testDescription: In vitro assay: intracellular calcium measurements (FLIPR), antagonistic activity
# testConditions: CHO cells expressing human orexin-2 receptor, orexin-A agonist, geometric mean, read-out: IC50 Ox2
pIC50: −log10 of the molar value.
recordedMetric: pIC50

| cpdSmiles | recordedMetric | endpointResult |
| --- | --- | --- |
| C=C1C[C@@H](c2nc3cc(C(C)(C)C)ccc3[nH]2)N(C(=O)c2cc(OC(F)(F)F)ccc2-n2nccn2)C1 | pIC50 | 6.32 |

I: CO[C@@H]1C[C@@H](c2nc3ccc(Cl)c(C)c3[nH]2)N(C(=O)c2cc(C)c(C)cc2-n2nccn2)C1
II: Cc1ccc(C(=O)N2CCC[C@@]2(C)c2nc3cc(C)c(C)cc3n2C)c(-n2nccn2)c1
III: COc1ccc(-n2nccn2)c(C(=O)N2CCC[C@H]2c2nc3ccc(OC)cc3[nH]2)c1
Problem: Sort the 3 compounds by pIC50; largest first, smallest last. The labels, placed in the requested order, form the answer.
Solution: I, III, II
(I: 8.70, III: 7.70, II: 6.14)
